TESTED TARGET: geranylgeranyltransferase type-I (Rattus norvegicus, UniProt P53610+Q04631)
ASSAY NOTES: In vitro inhibition of rat brain cytosol Geranylgeranyl transferase type I
PROPERTY: IC50 (µM)

P = CC(C)=CCC/C(C)=C/CC/C(C)=C/COc1c(F)c(O)c([N+](=O)[O-])c(F)c1F
Q = C=C(C)C1CC=C(COc2c(F)c(O)c([N+](=O)[O-])c(F)c2F)CC1 (configuration not stated)
Qu. Just tell me: smaller IC50 value, P or Q ? Bench note: the answer is the label of the chosen record.
Ans. P
(P: 12.5 µM, Q: 85 µM)

====

TESTED TARGET: Protein farnesyltransferase (Rattus norvegicus, UniProt Q02293+Q04631)
ASSAY NOTES: In vitro inhibition of rat brain cytosol farnesyl transferase
PROPERTY: IC50

Qu. Identify the measured IC50 of "C=CCOc1c(F)c(O)c([N+](=O)[O-])c(F)c1F" for Protein farnesyltransferase (Rattus norvegicus, UniProt Q02293+Q04631).
Ans. > 200 µM

Continuing:
Qu. Identify the measured IC50 of "O=[N+]([O-])c1c(O)c(F)c(OCc2ccccc2)c(F)c1F" for Protein farnesyltransferase (Rattus norvegicus, UniProt Q02293+Q04631).
Ans. > 200 µM

Qu. Next compound up: "CCCCCCCCCCCCOc1c(F)c(O)c([N+](=O)[O-])c(F)c1F"
Ans. > 100 µM

====

TESTED TARGET: geranylgeranyltransferase type-I (Rattus norvegicus, UniProt P53610+Q04631)
ASSAY NOTES: In vitro inhibition of rat brain cytosol Geranylgeranyl transferase type I
pIC50: −log10 of the molar value.
PROPERTY: pIC50

Example molecules with recorded pIC50:
Qu. Request the reported pIC50 associated with "CCCCCCCCCCCCOc1c(F)c(O)c([N+](=O)[O-])c(F)c1F"
Ans. < 4.00

Qu. Next molecule up: "O=[N+]([O-])c1c(O)c(F)c(OCc2ccccc2)c(F)c1F"
Ans. 4.24

Continuing:
Qu. Request the reported pIC50 associated with "C=CCOc1c(F)c(O)c([N+](=O)[O-])c(F)c1F"
Ans. < 3.70

Qu. Next molecule up: "O=[N+]([O-])c1c(O)c(F)c(OCc2ccc(-c3ccccc3)cc2)c(F)c1F"
Ans. < 3.70

Qu. Next molecule up: "O=[N+]([O-])c1c(O)c(F)c(OCc2ccc3ccccc3c2)c(F)c1F"
Ans. < 3.70

Data provenance is ChEMBL document CHEMBL1131955.
